Biological target: Protein Mdm4 (Homo sapiens) + E3 ubiquitin-protein ligase Mdm2 (Homo sapiens) (UniProt O15151+Q00987)
Sequence (O15151 whole entry, looked up): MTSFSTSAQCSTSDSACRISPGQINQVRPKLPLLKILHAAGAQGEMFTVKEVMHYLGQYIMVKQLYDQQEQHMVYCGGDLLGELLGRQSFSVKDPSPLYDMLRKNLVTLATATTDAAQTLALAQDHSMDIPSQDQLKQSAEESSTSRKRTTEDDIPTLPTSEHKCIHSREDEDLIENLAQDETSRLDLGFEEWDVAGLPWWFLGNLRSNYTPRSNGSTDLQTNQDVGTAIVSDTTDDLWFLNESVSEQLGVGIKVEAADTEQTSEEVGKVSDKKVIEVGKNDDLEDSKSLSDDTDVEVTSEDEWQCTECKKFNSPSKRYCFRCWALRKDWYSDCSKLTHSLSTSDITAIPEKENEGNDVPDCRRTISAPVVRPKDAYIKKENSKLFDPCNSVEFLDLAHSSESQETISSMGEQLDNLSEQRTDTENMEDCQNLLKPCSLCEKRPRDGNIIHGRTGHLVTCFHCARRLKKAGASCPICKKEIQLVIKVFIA
Sequence (Q00987 whole entry, looked up): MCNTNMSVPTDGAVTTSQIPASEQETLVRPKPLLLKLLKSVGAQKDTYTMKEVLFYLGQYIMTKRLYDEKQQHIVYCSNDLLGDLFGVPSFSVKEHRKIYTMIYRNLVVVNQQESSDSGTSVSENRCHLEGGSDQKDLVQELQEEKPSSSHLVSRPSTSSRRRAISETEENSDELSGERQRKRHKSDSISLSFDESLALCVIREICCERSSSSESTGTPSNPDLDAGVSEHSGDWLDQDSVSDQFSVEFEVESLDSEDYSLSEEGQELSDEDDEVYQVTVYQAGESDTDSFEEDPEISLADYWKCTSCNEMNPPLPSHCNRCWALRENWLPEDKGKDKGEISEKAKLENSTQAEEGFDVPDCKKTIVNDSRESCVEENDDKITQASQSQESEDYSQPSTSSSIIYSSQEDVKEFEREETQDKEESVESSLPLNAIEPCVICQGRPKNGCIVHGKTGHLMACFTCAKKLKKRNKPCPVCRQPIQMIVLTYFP
Experiment: inhibitors of human Mdm2-MdmX association, primary screen, cell-based, luminescence, split luciferase, SaOS-2, uHTS (AID 485346)
Conditions: SaOS-2 split-luciferase Mdm2/MdmX complementation, at 8 µM
Out of some 330,000 compounds screened, about 10,000 (3%) were called active.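 The calls were made as follows: active = inhibition of at least 50% at 8 µM in the primary screen; inactive = the rest.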 This is one part of a sample in which actives are shown more often than they occur.
Permitted responses: t = active, f = inactive

Look over these answered cases.
INSERT INTO assay_data (molecule, qualitative_label) VALUES
  ('COC(=O)c1ccc(Sc2ccc(F)cc2)c(N)c1', 'f'),
  ('Cc1[nH]n(-c2ccc([N+](=O)[O-])cc2)c(=O)c1C=NCCN1CCN(C(=O)c2ccccc2F)CC1', 'f'),
  ('CN(Cc1cccs1)C(=O)Cc1c[nH]c2ccccc12', 'f');

Q: Each molecule tested received a call. Report the one for Cc1cc(C)nc(N/N=C/c2c(CO)cnc(C)c2O)n1 .
Ans: f

Q: Each molecule tested received a call. Report the one for CCN(CC)S(=O)(=O)c1ccc(NC(=O)c2cccnc2Cl)c(NC(=O)c2cccnc2Cl)c1 .
Ans: t

Q: Each molecule tested received a call. Report the one for O=C(Nc1ccc(N2CCN(C(=O)C3CC3)CC2)cc1)c1cccs1 .
Ans: f

Q: Each molecule tested received a call. Report the one for Cc1cc(C)cc(OCC(=O)Nc2cc(NC(=O)COc3cc(C)cc(C)c3)cc(C(=O)O)c2)c1 .
Ans: f

Q: Each molecule tested received a call. Report the one for Cc1[nH]n(-c2ccccc2)c(=O)c1/C=N/NC(=O)c1ccoc1C .
Ans: f

Q: Each molecule tested received a call. Report the one for O=C(CCc1ccc(S(=O)(=O)N2CCOCC2)cc1)NN=C1CCCCCCC1 .
Ans: f

Q: Each molecule tested received a call. Report the one for O=C(Nc1ccc2c(c1)OCCO2)c1cnccn1 .
Ans: f
